# systemTested: EEF2 Elongation factor 2 (Homo sapiens, UniProt P13639)
# Construct: isoTOP-ABPP experiments performed in cell lysates (in vitro); endogenous in cells; host or cells: soluble proteome of human cancer cell lines (MDA-MB-231; Ramos and Jurkat also prepared)
# assayMethodText: competitive isoTOP-ABPP
# Type: binding
# recordedConditions: 50 uM, 231 sol, in vitro
measurementName: isoTOP-ABPP reactivity ratio at lysine P13639_K318

> print(dat)
                                   compound                              systemtested  resultnumber
1  O=C(Oc1ccc([N+](=O)[O-])cc1[N+](=O)[O-])C(c1ccccc1)c1ccccc1 [fragment 30, 2,4-Dinitrophenyl 2,2-diphenylacetate]  EEF2 Elongation factor 2 (Homo sapiens, UniProt P13639)           1.4
2  CCn1cc(C(=O)Oc2c(F)c(F)c(F)c(F)c2F)c(=O)c2ccc(C)nc21  EEF2 Elongation factor 2 (Homo sapiens, UniProt P13639)           1.6
3  O=C(CCc1coc2cc(F)ccc2c1=O)Oc1c(F)c(F)c(F)c(F)c1F  EEF2 Elongation factor 2 (Homo sapiens, UniProt P13639)           1.1
4  O=C(Oc1c(F)c(F)c(F)c(F)c1F)C1CCN(C(=O)OCc2ccccc2)CC1  EEF2 Elongation factor 2 (Homo sapiens, UniProt P13639)           1.2
5  O=C(CCc1cn(-c2ccccc2)nc1-c1ccccc1)Oc1ccc([N+](=O)[O-])cc1[N+](=O)[O-]  EEF2 Elongation factor 2 (Homo sapiens, UniProt P13639)           0.9

###

Recorded isoTOP-ABPP reactivity ratio at lysine P23919_K118 by entry
# systemTested: DTYMK Thymidylate kinase (Homo sapiens, UniProt P23919)
# Construct: isoTOP-ABPP experiments performed in cell lysates (in vitro); endogenous in cells; host or cells: soluble proteome of human cancer cell lines (MDA-MB-231; Ramos and Jurkat also prepared)
# Sequence (P23919 whole entry): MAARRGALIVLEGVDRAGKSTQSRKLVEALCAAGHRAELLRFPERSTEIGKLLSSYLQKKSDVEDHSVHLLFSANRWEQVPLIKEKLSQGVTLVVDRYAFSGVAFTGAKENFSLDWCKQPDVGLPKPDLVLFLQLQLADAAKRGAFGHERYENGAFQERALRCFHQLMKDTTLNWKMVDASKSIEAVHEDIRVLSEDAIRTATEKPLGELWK
# assayMethodText: competitive isoTOP-ABPP
# Format: binding
# recordedConditions: 50 uM, 231 sol, in vitro
measurementName: isoTOP-ABPP reactivity ratio at lysine P23919_K118

> print(dat)
                                   compound  resultnumber
1  O=C(Oc1c(F)c(F)c(F)c(F)c1F)C1CCN(C(=O)OCc2ccccc2)CC1 [fragment 24]           1.1
2  O=C(CCc1cn(-c2ccccc2)nc1-c1ccccc1)Oc1ccc([N+](=O)[O-])cc1[N+](=O)[O-] [fragment 29]           1.1
3  O=C(Oc1c(F)c(F)c(F)c(F)c1F)c1ccc2ccccc2n1 [fragment 25]           1.1
4  COc1cc(CCC(=O)Oc2ccc([N+](=O)[O-])cc2[N+](=O)[O-])cc(OC)c1OC [fragment 33]           6.6
5  CCn1cc(C(=O)Oc2c(F)c(F)c(F)c(F)c2F)c(=O)c2ccc(C)nc21 [fragment 28]           0.9

###

Listed compounds paired with reported R value (DMSO/fragment) for probe 1 labeling
# systemTested: PLIN3 Perilipin-3 (Homo sapiens, UniProt O60664)
# Construct: isoTOP-ABPP experiments performed in cell lysates (in vitro); endogenous in cells; host or cells: MDA-MB-231 soluble lysate
# Sequence (O60664 1-434): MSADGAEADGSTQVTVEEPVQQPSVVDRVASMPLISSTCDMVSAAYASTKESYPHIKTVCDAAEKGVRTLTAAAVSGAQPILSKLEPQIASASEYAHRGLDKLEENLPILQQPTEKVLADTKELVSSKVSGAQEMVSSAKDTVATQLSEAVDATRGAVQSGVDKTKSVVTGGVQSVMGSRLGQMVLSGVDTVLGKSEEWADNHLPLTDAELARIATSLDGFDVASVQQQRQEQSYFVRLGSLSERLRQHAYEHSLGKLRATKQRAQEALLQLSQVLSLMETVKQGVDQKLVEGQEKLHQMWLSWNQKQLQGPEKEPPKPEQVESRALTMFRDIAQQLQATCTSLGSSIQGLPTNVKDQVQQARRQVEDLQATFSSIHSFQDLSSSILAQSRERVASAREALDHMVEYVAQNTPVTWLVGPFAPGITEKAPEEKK
# assayMethodText: competitive isoTOP-ABPP
# Assay type: binding
# recordedConditions: O60664_K257; 50 uM, 231 sol, in vitro
measurementName: R value (DMSO/fragment) for probe 1 labeling

> print(dat)
                                   compound  resultnumber
1  Cn1cc(CC(=O)Oc2c(F)c(F)c(F)c(F)c2F)c2ccccc21           2.6
2  O=C(CCc1cn(-c2ccccc2)nc1-c1ccccc1)Oc1c(F)c(F)c(F)c(F)c1F           2.2
3  O=C(Oc1c(F)c(F)c(F)c(F)c1F)C(c1ccccc1)c1ccccc1 [fragment 20, Pentafluorophenyl 2,2-diphenylacetate]           2.5
4  O=C(Oc1c(F)c(F)c(F)c(F)c1F)c1cc(C(F)(F)F)cc(C(F)(F)F)c1           2.0

###

Entries and their isoTOP-ABPP ratio (R) at liganded lysine P08237_K678
# systemTested: PFKM 6-phosphofructokinase, muscle type (Homo sapiens, UniProt P08237)
# Construct: isoTOP-ABPP experiments performed in cell lysates (in vitro); endogenous in cells; host or cells: MDA-MB-231 soluble lysate
# Sequence (P08237 whole entry): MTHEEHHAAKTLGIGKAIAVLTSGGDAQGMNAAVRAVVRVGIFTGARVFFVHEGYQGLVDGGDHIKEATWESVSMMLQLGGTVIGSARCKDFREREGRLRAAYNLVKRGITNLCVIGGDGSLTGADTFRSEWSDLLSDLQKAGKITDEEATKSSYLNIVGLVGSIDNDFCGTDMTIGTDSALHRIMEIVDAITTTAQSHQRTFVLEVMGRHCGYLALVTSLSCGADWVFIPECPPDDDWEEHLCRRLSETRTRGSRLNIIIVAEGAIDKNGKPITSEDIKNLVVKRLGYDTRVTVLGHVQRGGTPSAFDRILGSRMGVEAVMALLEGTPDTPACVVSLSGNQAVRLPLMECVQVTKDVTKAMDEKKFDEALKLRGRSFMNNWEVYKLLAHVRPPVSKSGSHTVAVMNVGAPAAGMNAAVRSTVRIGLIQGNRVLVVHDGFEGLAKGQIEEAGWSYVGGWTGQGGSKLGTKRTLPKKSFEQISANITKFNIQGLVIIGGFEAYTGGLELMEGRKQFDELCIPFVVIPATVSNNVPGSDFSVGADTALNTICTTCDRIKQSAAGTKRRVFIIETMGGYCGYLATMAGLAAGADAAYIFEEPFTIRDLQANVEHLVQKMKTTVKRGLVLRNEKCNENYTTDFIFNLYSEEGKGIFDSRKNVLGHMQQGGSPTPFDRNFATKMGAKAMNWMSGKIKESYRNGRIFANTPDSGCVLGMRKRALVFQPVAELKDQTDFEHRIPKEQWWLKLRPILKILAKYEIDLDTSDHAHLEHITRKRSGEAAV
# assayMethodText: competitive isoTOP-ABPP
# Format: binding
# recordedConditions: 50 uM, in vitro, sol, 231
measurementName: isoTOP-ABPP ratio (R) at liganded lysine P08237_K678

compound	result
O=C(Oc1ccc([N+](=O)[O-])cc1[N+](=O)[O-])C1CCN(C(=O)OCc2ccccc2)CC1	1.1
CC(C)(C)OC(=O)NCCCC(=O)Oc1ccc([N+](=O)[O-])cc1[N+](=O)[O-]	2.0
O=C(Oc1ccc([N+](=O)[O-])cc1[N+](=O)[O-])c1ccccc1Nc1cccc(C(F)(F)F)c1	0.9
O=C(Oc1ccc([N+](=O)[O-])cc1[N+](=O)[O-])c1ccc(-c2ccccc2)cc1	1.0
CC(=O)Oc1ccc([N+](=O)[O-])cc1[N+](=O)[O-] [fragment 43, 2,4-Dinitrophenyl acetate]	1.3
O=C(CCc1coc2cc(F)ccc2c1=O)Oc1ccc([N+](=O)[O-])cc1[N+](=O)[O-]	5.3
O=C(Oc1ccc([N+](=O)[O-])cc1[N+](=O)[O-])c1ccc(Oc2ccccc2)cc1 [fragment 39, 2,4-Dinitrophenyl 4-phenoxybenzoate]	1.0
O=C(CC12CC3CC(CC(C3)C1)C2)Oc1ccc([N+](=O)[O-])cc1[N+](=O)[O-]	1.0
O=C(Oc1ccc([N+](=O)[O-])cc1[N+](=O)[O-])c1ccc2ccccc2n1	1.2
O=C(Oc1ccc([N+](=O)[O-])cc1[N+](=O)[O-])C(c1ccccc1)(c1ccccc1)c1ccccc1 [fragment 42, 2,4-Dinitrophenyl 2,2,2-triphenylacetate]	0.9

###

# systemTested: EEF1G Elongation factor 1-gamma (Homo sapiens)
# Construct: isoTOP-ABPP experiments performed in cell lysates (in vitro); endogenous in cells; host or cells: soluble proteome of human cancer cell lines (MDA-MB-231; Ramos and Jurkat also prepared)
# Sequence (P26641 whole entry): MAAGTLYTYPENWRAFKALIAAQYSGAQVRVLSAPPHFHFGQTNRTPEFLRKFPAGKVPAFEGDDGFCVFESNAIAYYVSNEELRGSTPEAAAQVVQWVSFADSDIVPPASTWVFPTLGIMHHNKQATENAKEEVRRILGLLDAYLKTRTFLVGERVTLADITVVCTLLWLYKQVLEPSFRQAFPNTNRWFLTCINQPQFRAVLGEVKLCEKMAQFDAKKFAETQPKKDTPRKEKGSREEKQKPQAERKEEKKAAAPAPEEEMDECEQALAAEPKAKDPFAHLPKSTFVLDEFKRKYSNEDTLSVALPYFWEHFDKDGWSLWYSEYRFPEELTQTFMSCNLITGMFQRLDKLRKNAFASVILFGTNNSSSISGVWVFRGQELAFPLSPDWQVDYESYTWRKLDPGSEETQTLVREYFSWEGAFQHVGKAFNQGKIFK
# assayMethodText: competitive isoTOP-ABPP
# Format: binding
# recordedConditions: 50 uM_231_sol_in vitro
measurementName: isoTOP-ABPP ratio, lysine P26641_K227

> print(dat)
                                   compound                        measurementname  result
1  NC(=O)c1cc(C(F)(F)F)cc(C(F)(F)F)c1 [fragment 51, reference compound]  isoTOP-ABPP ratio, lysine P26641_K227     0.9
2  N#Cc1ccc(C(=O)Oc2ccc([N+](=O)[O-])cc2[N+](=O)[O-])cc1 [fragment 44, 2,4-Dinitrophenyl 4-cyanobenzoate]  isoTOP-ABPP ratio, lysine P26641_K227     0.8
3  O=C(ON1C(=O)CCC1=O)c1cc(C(F)(F)F)cc(C(F)(F)F)c1  isoTOP-ABPP ratio, lysine P26641_K227     0.6
4  O=C(CCc1ccc2c(c1)OCO2)Oc1ccc([N+](=O)[O-])cc1[N+](=O)[O-]  isoTOP-ABPP ratio, lysine P26641_K227     0.6

###

# systemTested: LMNA Prelamin-A/C (Homo sapiens, UniProt P02545)
# Construct: isoTOP-ABPP experiments performed in cell lysates (in vitro); endogenous in cells; host or cells: MDA-MB-231 soluble lysate
# Sequence (P02545 whole entry): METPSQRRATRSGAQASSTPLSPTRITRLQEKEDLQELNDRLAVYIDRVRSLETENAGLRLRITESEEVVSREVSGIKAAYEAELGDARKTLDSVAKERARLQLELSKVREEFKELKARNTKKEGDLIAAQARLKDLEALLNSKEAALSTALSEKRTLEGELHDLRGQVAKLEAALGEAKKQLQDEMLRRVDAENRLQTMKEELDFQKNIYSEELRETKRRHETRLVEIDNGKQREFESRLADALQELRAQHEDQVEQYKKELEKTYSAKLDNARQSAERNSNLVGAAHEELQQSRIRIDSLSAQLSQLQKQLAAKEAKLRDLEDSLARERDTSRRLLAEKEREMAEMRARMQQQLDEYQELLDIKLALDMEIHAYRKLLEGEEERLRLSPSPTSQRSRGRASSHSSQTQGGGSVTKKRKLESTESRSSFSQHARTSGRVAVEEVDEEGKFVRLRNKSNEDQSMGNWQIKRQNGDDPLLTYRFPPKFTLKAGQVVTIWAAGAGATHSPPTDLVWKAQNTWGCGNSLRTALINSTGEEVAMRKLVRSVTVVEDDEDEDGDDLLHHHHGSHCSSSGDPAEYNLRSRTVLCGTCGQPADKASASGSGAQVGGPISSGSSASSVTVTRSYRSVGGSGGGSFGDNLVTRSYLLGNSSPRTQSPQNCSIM
# assayMethodText: competitive isoTOP-ABPP
# Assay type: binding
# recordedConditions: 50 uM, 231 sol, in vitro
Decide by isoTOP-ABPP reactivity ratio at lysine P02545_K135: equal to or exceeding 1 means MET, less means NOT MET.

> print(dat)
                                   molecule  labelvalue
1  Cn1cc(CC(=O)Oc2ccc([N+](=O)[O-])cc2[N+](=O)[O-])c2ccccc21         MET
2  O=C(Oc1c(F)c(F)c(F)c(F)c1F)c1ccc2ccccc2n1     NOT MET
3  O=C(Oc1ccc([N+](=O)[O-])cc1[N+](=O)[O-])c1cc(C(F)(F)F)cc(C(F)(F)F)c1         MET
4  O=C(Oc1ccc([N+](=O)[O-])cc1[N+](=O)[O-])C(c1ccccc1)c1ccccc1 [fragment 30, 2,4-Dinitrophenyl 2,2-diphenylacetate]         MET
5  COc1cc(CCC(=O)Oc2ccc([N+](=O)[O-])cc2[N+](=O)[O-])cc(OC)c1OC     NOT MET
